biological target: Sulfonylurea receptor 2, Kir6.2 (Homo sapiens) (UniProt Q14654+O60706); assay: Ability to open human urinary bladder Kir6.2 containing SUR2B in Ltk cells by FLIPR assay relative to P1075; assay type: functional, cell-based
Item-by-item account of Efficacy
Give the value in % but do not write % after it.

See these solved cases before continuing.
> print(dat)
                                   compound  endpoint  unit.descriptor  readout.number
1  CC1(C)OC(O)=C2C1=NC1=C(C(=O)COC1)C2c1ccc(F)c(Br)c1 (stereo not drawn)  Efficacy                %              77
2  O=C1COCC2=C1[C@@H](c1ccc(F)c(Br)c1)C1=C(COC1=O)N2  Efficacy                %             107

Consider the record given below.
Noted for C[C@@H]1OC(=O)C2=C1NC1=C([C@H]2c2ccc(F)c(Br)c2)S(=O)(=O)CCC1 (relative stereo) : its Efficacy reads 102

---

Overview of recorded EC50 for various compounds
target: Sulfonylurea receptor 2, Kir6.2 (Homo sapiens, UniProt O60706+Q14654); assay: Activity against pig bladder KATP channel opening assessed as ability to relax field-stimulated pig detrusor; assay type: functional, Sus scrofa; conditions: target entry is the homologue from another species
Sequence (Q14654 whole entry): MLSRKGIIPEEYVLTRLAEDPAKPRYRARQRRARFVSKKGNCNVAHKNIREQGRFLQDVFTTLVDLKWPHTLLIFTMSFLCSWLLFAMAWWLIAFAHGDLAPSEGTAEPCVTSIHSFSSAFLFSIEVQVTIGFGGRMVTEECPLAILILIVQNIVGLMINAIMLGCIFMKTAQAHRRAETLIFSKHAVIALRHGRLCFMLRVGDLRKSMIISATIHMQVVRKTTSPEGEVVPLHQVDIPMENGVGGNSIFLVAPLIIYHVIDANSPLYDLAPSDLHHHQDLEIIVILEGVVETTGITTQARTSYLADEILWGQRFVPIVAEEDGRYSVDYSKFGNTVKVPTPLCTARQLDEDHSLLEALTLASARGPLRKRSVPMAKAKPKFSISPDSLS
Sequence (O60706 whole entry): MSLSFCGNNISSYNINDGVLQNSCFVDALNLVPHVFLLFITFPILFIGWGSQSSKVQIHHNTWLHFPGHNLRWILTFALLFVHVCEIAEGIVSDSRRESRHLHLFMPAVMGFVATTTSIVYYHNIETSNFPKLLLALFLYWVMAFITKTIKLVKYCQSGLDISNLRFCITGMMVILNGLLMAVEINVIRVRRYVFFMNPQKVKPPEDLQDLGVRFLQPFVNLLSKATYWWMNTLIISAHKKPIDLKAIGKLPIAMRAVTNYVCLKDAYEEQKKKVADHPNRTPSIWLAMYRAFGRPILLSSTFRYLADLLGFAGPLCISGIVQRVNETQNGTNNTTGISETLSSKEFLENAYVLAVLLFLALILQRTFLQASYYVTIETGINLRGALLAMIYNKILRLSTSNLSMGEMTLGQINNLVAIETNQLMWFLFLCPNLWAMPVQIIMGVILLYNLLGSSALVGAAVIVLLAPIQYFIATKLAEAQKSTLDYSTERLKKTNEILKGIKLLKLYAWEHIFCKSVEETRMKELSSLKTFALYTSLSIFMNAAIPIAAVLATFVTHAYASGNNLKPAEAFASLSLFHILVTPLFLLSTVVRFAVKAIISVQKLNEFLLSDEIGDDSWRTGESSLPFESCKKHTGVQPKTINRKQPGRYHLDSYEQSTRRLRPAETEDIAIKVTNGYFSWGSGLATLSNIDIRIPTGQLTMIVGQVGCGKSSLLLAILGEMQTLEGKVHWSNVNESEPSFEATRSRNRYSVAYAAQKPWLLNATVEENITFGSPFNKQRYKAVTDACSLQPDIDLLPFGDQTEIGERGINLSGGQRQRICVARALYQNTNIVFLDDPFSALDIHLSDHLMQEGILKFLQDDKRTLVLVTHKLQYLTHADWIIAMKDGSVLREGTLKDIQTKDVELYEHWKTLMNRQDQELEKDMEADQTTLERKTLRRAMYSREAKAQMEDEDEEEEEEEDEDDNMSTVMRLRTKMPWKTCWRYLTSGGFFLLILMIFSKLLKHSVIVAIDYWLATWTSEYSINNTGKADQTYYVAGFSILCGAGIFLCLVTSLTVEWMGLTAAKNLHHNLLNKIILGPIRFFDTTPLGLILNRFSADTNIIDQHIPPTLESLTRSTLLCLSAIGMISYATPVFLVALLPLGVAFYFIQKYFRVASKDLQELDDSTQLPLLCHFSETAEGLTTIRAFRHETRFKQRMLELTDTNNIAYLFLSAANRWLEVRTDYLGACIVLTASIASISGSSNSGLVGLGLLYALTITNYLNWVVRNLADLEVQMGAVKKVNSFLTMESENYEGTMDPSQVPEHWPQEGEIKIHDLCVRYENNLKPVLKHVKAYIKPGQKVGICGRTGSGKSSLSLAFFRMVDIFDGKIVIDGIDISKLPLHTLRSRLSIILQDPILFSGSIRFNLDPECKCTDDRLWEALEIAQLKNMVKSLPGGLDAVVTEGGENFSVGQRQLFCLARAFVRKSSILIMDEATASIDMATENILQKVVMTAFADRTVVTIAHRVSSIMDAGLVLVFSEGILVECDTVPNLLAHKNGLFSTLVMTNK
Value expressed in nM; do not type the unit.

Sample answers from the record:
> print(dat)
                                   compound  endpoint  readout.number
1  CC(C)[C@@H]1OC(O)=C2C1=NC1=C(C(=O)COC1)[C@H]2c1ccc(F)c(Br)c1 (relative stereo)      EC50            1200
2  CC[C@H]1OC(O)=C2C1=NC1=C(C(=O)CSC1)[C@H]2c1ccc(F)c(Br)c1      EC50             955

// next entry
Input "CCc1cc(C#N)ccc1Nc1c(N[C@H](C)C(C)(C)C)c(=O)c1=O" . Output EC50: 676
